assay: Binding strength measured by surface plasmon resonance (BIACOR 3000, Sensor Chip NTA); conditions: read-out: Kd (dissociation constant for nickel), SPR
pKd: −log10 of the molar value.
OUTCOME MEASURE: pKd

Complete the entry with pKd for YSHHHHHHLAGTA [C26]
~10.64

Values from patent US9695217B2
